Experiment: TEAD-YAP interaction inhibition, primary screen, TEAD-YAP interaction inhibitor project, luminescence, HEK-TIYL cells (AID 1259422)
Conditions: TEAD-Gal4/YAP UAS-luciferase luminescence, at 9.12 µM
Among all 640,000 compounds or so, about 9,300 (1.5%) were called active. No stated cut-off is given here; in the data, active means inhibition above about 32%; inactive means the rest. Only a selection was taken, and actives are over-represented in it overall.
Returns: one label drawn from True = active, False = inactive

Would you please look over these solved cases?
# molecule, qualitativeLabel
rows = [
    ("CNC(=O)c1ccccc1Nc1ccnc(Nc2ccc(N3CCOCC3)cc2)c1", "False"),
    ("O=C(Nc1ccc2c3c(cccc13)CC2)c1cc([N+](=O)[O-])cc([N+](=O)[O-])c1", "False"),
    ("Cc1cc(Cl)ccc1NC(=O)COc1ccc([N+](=O)[O-])cc1", "False"),
]

## Task What did this assay record as the result for CCCNc1ccc2ncc(-c3cccc(OC)c3)n2n1 ?
## Result True

## Task Thanks! And CCC(C)n1c(N(C)Cc2ccccc2)nc2c1c(=O)[nH]c(=O)n2C (configuration not stated) ?
## Result True

## Task Thanks! And CCCNc1cc(-c2cccc(N)c2)ncn1 ?
## Result False

## Task Thanks! And Cc1cnc(-c2c(C)noc2C)nc1Nc1ccc(N2CCOCC2)cc1 ?
## Result False

## Task Thanks! And c1ccc(Nc2nc(Nc3ccc(N4CCOCC4)cc3)nc3nc[nH]c23)cc1 ?
## Result False

## Task Thanks! And O=C1/C(=C/c2cccnc2)Oc2cc(OC(=O)C3CC3)ccc21 ?
## Result True

## Task Thanks! And CCOC(=O)C1=C(c2ccc(OC)cc2)C(=O)c2ccccc2C1=O ?
## Result True

## Task Thanks! And Brc1ccc2nc(-c3cccs3)cn2c1 ?
## Result True

## Task Thanks! And N#Cc1ccc(-c2cccs2)nc1SCc1ccc(Br)cc1 ?
## Result False

## Task Thanks! And Cc1cccc(NC(=O)CC(C)(C)C)n1 ?
## Result False

## Task Thanks! And O=C(Nc1ccc2c3c(cccc13)CC2)c1cc([N+](=O)[O-])ccc1Br ?
## Result True

## Task Thanks! And N#CC(C#N)=C1SCC(=O)N1c1ccc(F)cc1 ?
## Result False

## Task Thanks! And c1ccc(-n2cnc(-c3ccnc(Nc4ccc(N5CCOCC5)cc4)c3)n2)cc1 ?
## Result False

## Task Thanks! And O=C(Nc1ccc(-c2cn3ccccc3n2)cc1)c1ccc(Br)cc1 ?
## Result False

## Task Thanks! And CCCNC1=C(c2ccc(OC)cc2)C(=O)c2ccccc21 ?
## Result False

## Task Thanks! And CCOC(=O)C1=C(C)N(c2ccc(C)cc2)C(=O)/C1=C\c1ccc(OC)cc1 ?
## Result False

## Task Thanks! And C=C(Br)Cn1c(C(C)O)nc2ccccc21 (configuration not stated) ?
## Result False

## Task Thanks! And COc1ccc(C(=O)NCC(=O)NNc2ncnc(N)c2[N+](=O)[O-])c(OC)c1 ?
## Result False

## Task Thanks! And Cc1ccc2nc(-c3ccc(Br)cc3)cn2c1 ?
## Result True

## Task Thanks! And O=C(Nc1cccnc1Cl)c1cc2nc3c(c(C(F)(F)F)n2n1)CCc1ccccc1-3 ?
## Result False

## Task Thanks! And CC(C)(O)C#CC(O)c1cccc([N+](=O)[O-])c1 (configuration not stated) ?
## Result False

## Task Thanks! And CCc1nc(SCC(=O)Nc2nc(C)c(C)s2)c2ccccc2n1 ?
## Result False

Source: PubChem BioAssay AID1259422
